measured_on: Botulinum neurotoxin type A (Clostridium botulinum (strain Hall / ATCC 3502 / NCTC 13319 / Type A), UniProt P0DPI1)
Sequence (P0DPI1 2-448 limits assumed): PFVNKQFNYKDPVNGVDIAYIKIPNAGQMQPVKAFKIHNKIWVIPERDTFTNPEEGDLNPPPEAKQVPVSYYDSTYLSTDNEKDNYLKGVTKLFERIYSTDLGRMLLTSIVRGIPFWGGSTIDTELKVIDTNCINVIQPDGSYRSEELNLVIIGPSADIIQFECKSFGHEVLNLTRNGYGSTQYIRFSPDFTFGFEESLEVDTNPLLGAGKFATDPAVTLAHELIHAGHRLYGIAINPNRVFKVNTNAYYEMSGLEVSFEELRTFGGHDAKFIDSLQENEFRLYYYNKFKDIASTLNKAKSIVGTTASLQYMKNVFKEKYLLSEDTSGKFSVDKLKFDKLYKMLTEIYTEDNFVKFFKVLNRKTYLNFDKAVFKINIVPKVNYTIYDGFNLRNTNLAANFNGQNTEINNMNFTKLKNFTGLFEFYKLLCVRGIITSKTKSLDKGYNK
assay_explanation: Inhibition of Clostridium botulinum A Hall BoNT LC/A in human induced pluripotent stem cell-derived neurons assessed as inhibition of intracellular SNAP-25 cleavage after 8 hrs by Western blot analysis
Type: cell-based, Clostridium botulinum A str. Hall
condition_set: read-out: EC50
So I've got a bunch of compounds here, and I need their pEC50 values.
The read-out pEC50 is expressed as -log10 of concentration in moles per litre.

Please indicate pEC50 recorded for O=C(CC12CC3CC(CC(C3)C1)C2)NOC(=O)N1CCOCC1
4.43

Please indicate pEC50 recorded for COc1ccc(CNC(=O)ONC(=O)CC23CC4CC(CC(C4)C2)C3)cc1
4.38

Please indicate pEC50 recorded for O=C(CC12CC3CC(CC(C3)C1)C2)NOC(=O)NCc1ccc(F)cc1
4.57

====

So I've got a bunch of compounds here, and I need their log10 t1/2 values.
assay_explanation: Half life in culture media at 10 to 100 uM by LC/MS analysis
Assay type: physicochemical
condition_set: 100 µM
# values: log10(t1/2), units h

Please indicate log10 t1/2 recorded for O=C(CC12CC3CC(CC(C3)C1)C2)NOC(=O)Nc1ccccc1
-0.12

Please indicate log10 t1/2 recorded for O=C(CC12CC3CC(CC(C3)C1)C2)NOC(=O)NCc1ccc(F)cc1
1.06

Please indicate log10 t1/2 recorded for COc1ccc(NC(=O)ONC(=O)CC23CC4CC(CC(C4)C2)C3)cc1
-0.07

Please indicate log10 t1/2 recorded for COc1cc(NC(=O)ONC(=O)CC23CC4CC(CC(C4)C2)C3)cc(OC)c1
0.20

Please indicate log10 t1/2 recorded for COCCN(CCOC)C(=O)ONC(=O)CC12CC3CC(CC(C3)C1)C2
1.68

Please indicate log10 t1/2 recorded for CCNC(=O)ONC(=O)CC12CC3CC(CC(C3)C1)C2
1.18

Please indicate log10 t1/2 recorded for O=C(CC12CC3CC(CC(C3)C1)C2)NOC(=O)N1CCOCC1
1.52

Please indicate log10 t1/2 recorded for CN(C)C(=O)ONC(=O)CC12CC3CC(CC(C3)C1)C2
1.79

Please indicate log10 t1/2 recorded for O=C(CC12CC3CC(CC(C3)C1)C2)NOC(=O)Nc1ccc(F)cc1
-0.21

Please indicate log10 t1/2 recorded for COc1ccc(CNC(=O)ONC(=O)CC23CC4CC(CC(C4)C2)C3)cc1
1.05

Please indicate log10 t1/2 recorded for O=C(CC12CC3CC(CC(C3)C1)C2)NOC(=O)NCc1ccccc1
1.16

Please indicate log10 t1/2 recorded for CC1(C)ON=C(CC23CC4CC(CC(C4)C2)C3)O1
1.01

====

assay_explanation: Half life in PBS buffer at 10 to 100 uM by LC/MS analysis
Type: physicochemical
reported_metric: t1/2 (h)
Value expressed in h; do not type the unit.

Please indicate t1/2 recorded for O=C(CC12CC3CC(CC(C3)C1)C2)NOC(=O)NCc1ccc(F)cc1
11.5

Please indicate t1/2 recorded for COc1ccc(CNC(=O)ONC(=O)CC23CC4CC(CC(C4)C2)C3)cc1
14

Please indicate t1/2 recorded for CCNC(=O)ONC(=O)CC12CC3CC(CC(C3)C1)C2
27.6

Please indicate t1/2 recorded for O=C(CC12CC3CC(CC(C3)C1)C2)NOC(=O)NCc1ccccc1
17.6

Please indicate t1/2 recorded for O=C(CC12CC3CC(CC(C3)C1)C2)NOC(=O)Nc1ccccc1
1.1

Please indicate t1/2 recorded for COCCN(CCOC)C(=O)ONC(=O)CC12CC3CC(CC(C3)C1)C2
164

Please indicate t1/2 recorded for CN(C)C(=O)ONC(=O)CC12CC3CC(CC(C3)C1)C2
149

Please indicate t1/2 recorded for O=C(CC12CC3CC(CC(C3)C1)C2)NOC(=O)N1CCOCC1
48

Please indicate t1/2 recorded for COc1ccc(NC(=O)ONC(=O)CC23CC4CC(CC(C4)C2)C3)cc1
1.1

Please indicate t1/2 recorded for CC(C)(C)NC(=O)ONC(=O)CC12CC3CC(CC(C3)C1)C2
72

Please indicate t1/2 recorded for O=C(CC12CC3CC(CC(C3)C1)C2)NOC(=O)Nc1ccc(F)cc1
0.9

Please indicate t1/2 recorded for COc1cc(NC(=O)ONC(=O)CC23CC4CC(CC(C4)C2)C3)cc(OC)c1
1.2

Please indicate t1/2 recorded for CC1(C)ON=C(CC23CC4CC(CC(C4)C2)C3)O1
3.3

====

assay_explanation: Half life in culture media at 10 to 100 uM by LC/MS analysis
Format: physicochemical
condition_set: culture media
reported_metric: half-life at up to 100 µM (h)
Value expressed in h; do not type the unit.

Please indicate half-life at up to 100 µM recorded for Cc1cc(=O)oc2cc(NC(=O)ONC(=O)CC34CC5CC(CC(C5)C3)C4)ccc12
4.5

====

measured_on: Botulinum neurotoxin type A (Clostridium botulinum (strain Hall / ATCC 3502 / NCTC 13319 / Type A), UniProt P0DPI1)
assay_explanation: Inhibition of Clostridium botulinum A Hall BoNT LC/A in human induced pluripotent stem cell-derived neurons assessed as inhibition of intracellular SNAP-25 cleavage after 8 hrs by Western blot analysis
Type: cell-based, Clostridium botulinum A str. Hall
condition_set: read-out: EC50
pEC50: −log10 of the molar value.
reported_metric: pEC50

Please indicate pEC50 recorded for O=C(CC12CC3CC(CC(C3)C1)C2)NOC(=O)Nc1ccccc1
< 4.00

Please indicate pEC50 recorded for COCCN(CCOC)C(=O)ONC(=O)CC12CC3CC(CC(C3)C1)C2
< 4.00

Please indicate pEC50 recorded for CC1(C)ON=C(CC23CC4CC(CC(C4)C2)C3)O1
< 4.00

Please indicate pEC50 recorded for CCNC(=O)ONC(=O)CC12CC3CC(CC(C3)C1)C2
< 4.00

Please indicate pEC50 recorded for O=C(CC12CC3CC(CC(C3)C1)C2)NOC(=O)NCc1ccccc1
4.70

Please indicate pEC50 recorded for CN(C)C(=O)ONC(=O)CC12CC3CC(CC(C3)C1)C2
< 4.00

====

So I've got a bunch of compounds here, and I need their pEC50 values.
measured_on: Botulinum neurotoxin type A (Clostridium botulinum (strain Hall / ATCC 3502 / NCTC 13319 / Type A), UniProt P0DPI1)
assay_explanation: Inhibition of Clostridium botulinum A Hall BoNT LC/A in human induced pluripotent stem cell-derived neurons assessed as inhibition of intracellular SNAP-25 cleavage after 8 hrs by Western blot analysis
Type: cell-based, Clostridium botulinum A str. Hall
condition_set: read-out: EC50
pEC50: −log10 of the molar value.

Please indicate pEC50 recorded for COc1ccc(NC(=O)ONC(=O)CC23CC4CC(CC(C4)C2)C3)cc1
< 4.00

Please indicate pEC50 recorded for O=C(CC12CC3CC(CC(C3)C1)C2)NOC(=O)Nc1ccc(F)cc1
< 4.00

Please indicate pEC50 recorded for COc1cc(NC(=O)ONC(=O)CC23CC4CC(CC(C4)C2)C3)cc(OC)c1
< 4.00
